System: SK-OV-3
Assay: Cytotoxicity against human SKOV3 cells by SRB assay
Format: functional, cell-based
readout_name: IC50

Reported IC50 for COc1cccc2c1C(=O)c1c(O)c3c(c(O)c1C2=O)C[C@@](O)(C(=O)CO)C[C@@H]3O[C@H]1C[C@H](N)[C@H](O)[C@H](C)O1 [DOXORUBICIN] : what is it? 0.18 µg/mL

Reported IC50 for C[C@H]1CC[C@@]2(OC1)O[C@H]1C[C@H]3[C@@H]4CC[C@@H]5C[C@@H](O[C@@H]6O[C@H](CO)[C@@H](O)[C@H](O)[C@H]6O[C@@H]6O[C@@H](CO)[C@H](O)[C@H](O)[C@H]6O)CC[C@]5(C)[C@H]4CC[C@]3(C)[C@H]1[C@@H]2C (relative stereo) [ASPARANIN A] : what is it? 2.43 µg/mL

Reported IC50 for C[C@H]1CC[C@@]2(OC1)O[C@H]1C[C@H]3[C@@H]4CC[C@@H]5C[C@@H](O[C@@H]6O[C@H](CO)[C@@H](O)[C@H](O)[C@H]6O[C@@H]6O[C@@H](CO)[C@H](O)[C@H](O)[C@H]6O)CC[C@]5(C)[C@H]4CC[C@]3(C)[C@@]1(O)[C@@H]2C (relative stereo) [ASPAOLIGONIN A] : what is it? 2.66 µg/mL

Reported IC50 for C[C@H]1CC[C@@]2(OC1)O[C@H]1C[C@H]3[C@@H]4CC[C@@H]5C[C@@H](O[C@@H]6O[C@H](CO)[C@@H](O[C@@H]7O[C@@H](C)[C@H](O)[C@@H](O)[C@H]7O)[C@H](O)[C@H]6O[C@@H]6OC[C@@H](O)[C@H](O)[C@H]6O)CC[C@]5(C)[C@H]4CC[C@]3(C)[C@@]1(O)[C@@H]2C (relative stereo) [ASPAOLIGONIN B] : what is it? 2.73 µg/mL

Hello, the source for this data is ChEMBL document CHEMBL1158767, in case you need it.
